Molecular target: DLG4_2, P78352
Sequence (P78352 155-259): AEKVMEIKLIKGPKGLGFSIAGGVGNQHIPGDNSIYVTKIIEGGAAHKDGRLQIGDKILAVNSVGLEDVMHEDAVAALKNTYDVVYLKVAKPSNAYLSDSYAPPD
Test: holdup assay
Set-up: key: below the threshold = too weak to quantify, mostly under pKd 3.1 to 4
Conditions: plain residues with an end cap or a label only (N-terminal biotin on a linker: ado-ado)

{"columns": ["BINDER", "pKd"],
 "data": [
  ["LKDDELKTKL [SLCO1A2, P46721]", "below the threshold"],
  ["RSSGGDDFWF [KCNV1, Q6PIU1]", "below the threshold"],
  ["KRPEMTSSSV [MUC3A, MUC3B, Q02505;Q9H195]", 4.15],
  ["SFISKKEWYV [NECTIN1, Q15223]", 3.73],
  ["PYSESDDDWC [CACNA1A, O00555]", "below the threshold"],
  ["EPQYQPGENL [SRC, P12931]", "below the threshold"],
  ["MHIQEKGFHV [EPHA6, Q9UF33]", "below the threshold"],
  ["TGLWKHETTV [ADGRA3, Q8IWK6]", 5.41]
]}
